target: ACC1 from rat liver (Rattus norvegicus, UniProt P11497)
Construct: The livers (for ACC1 preparation) or skeletal muscle tissue (for ACC2 preparation) are removed; from tissue; host or cells: liver of male CD rats (fasted, then fed a high sucrose diet)
assayRemarks: Direct inhibition of ACC1 activity (14C-bicarbonate incorporation)
Assay type: biochemical
conditionLabel: ACC1 from rat liver
pIC50: −log10 of the molar value. Counter-ions that a name gives are not always drawn.
recordedMetric: pIC50

A. O=C(O)c1ccc2c(c1)C(=O)CC1(CCN(C(=O)c3cccc(-c4cc[nH]n4)c3)CC1)O2 [Ex. N1, trifluoroacetic acid salt]
B. Cc1cc2c(cc1C)C(=O)CC1(CCN(C(=O)c3ccc4[nH]ncc4c3)CC1)O2 [Ex. E1]
C. Cc1cc2c(cc1Cl)C(=O)CC1(CCN(C(=O)c3ccc4[nH]nnc4c3)CC1)O2
rank_up(items): orders items by reported pIC50 in ascending numerical order. Reply format: the labels, ordered as requested. C, A, B
(C: 5.31, A: 6.05, B: 7.02)

###

target: ACC2 from rat skeletal muscle (Rattus norvegicus)
Construct: The livers (for ACC1 preparation) or skeletal muscle tissue (for ACC2 preparation) are removed; from tissue; host or cells: skeletal muscle of male CD rats (fasted, then fed a high sucrose diet)
Sequence (Q1HEC0 17-2455): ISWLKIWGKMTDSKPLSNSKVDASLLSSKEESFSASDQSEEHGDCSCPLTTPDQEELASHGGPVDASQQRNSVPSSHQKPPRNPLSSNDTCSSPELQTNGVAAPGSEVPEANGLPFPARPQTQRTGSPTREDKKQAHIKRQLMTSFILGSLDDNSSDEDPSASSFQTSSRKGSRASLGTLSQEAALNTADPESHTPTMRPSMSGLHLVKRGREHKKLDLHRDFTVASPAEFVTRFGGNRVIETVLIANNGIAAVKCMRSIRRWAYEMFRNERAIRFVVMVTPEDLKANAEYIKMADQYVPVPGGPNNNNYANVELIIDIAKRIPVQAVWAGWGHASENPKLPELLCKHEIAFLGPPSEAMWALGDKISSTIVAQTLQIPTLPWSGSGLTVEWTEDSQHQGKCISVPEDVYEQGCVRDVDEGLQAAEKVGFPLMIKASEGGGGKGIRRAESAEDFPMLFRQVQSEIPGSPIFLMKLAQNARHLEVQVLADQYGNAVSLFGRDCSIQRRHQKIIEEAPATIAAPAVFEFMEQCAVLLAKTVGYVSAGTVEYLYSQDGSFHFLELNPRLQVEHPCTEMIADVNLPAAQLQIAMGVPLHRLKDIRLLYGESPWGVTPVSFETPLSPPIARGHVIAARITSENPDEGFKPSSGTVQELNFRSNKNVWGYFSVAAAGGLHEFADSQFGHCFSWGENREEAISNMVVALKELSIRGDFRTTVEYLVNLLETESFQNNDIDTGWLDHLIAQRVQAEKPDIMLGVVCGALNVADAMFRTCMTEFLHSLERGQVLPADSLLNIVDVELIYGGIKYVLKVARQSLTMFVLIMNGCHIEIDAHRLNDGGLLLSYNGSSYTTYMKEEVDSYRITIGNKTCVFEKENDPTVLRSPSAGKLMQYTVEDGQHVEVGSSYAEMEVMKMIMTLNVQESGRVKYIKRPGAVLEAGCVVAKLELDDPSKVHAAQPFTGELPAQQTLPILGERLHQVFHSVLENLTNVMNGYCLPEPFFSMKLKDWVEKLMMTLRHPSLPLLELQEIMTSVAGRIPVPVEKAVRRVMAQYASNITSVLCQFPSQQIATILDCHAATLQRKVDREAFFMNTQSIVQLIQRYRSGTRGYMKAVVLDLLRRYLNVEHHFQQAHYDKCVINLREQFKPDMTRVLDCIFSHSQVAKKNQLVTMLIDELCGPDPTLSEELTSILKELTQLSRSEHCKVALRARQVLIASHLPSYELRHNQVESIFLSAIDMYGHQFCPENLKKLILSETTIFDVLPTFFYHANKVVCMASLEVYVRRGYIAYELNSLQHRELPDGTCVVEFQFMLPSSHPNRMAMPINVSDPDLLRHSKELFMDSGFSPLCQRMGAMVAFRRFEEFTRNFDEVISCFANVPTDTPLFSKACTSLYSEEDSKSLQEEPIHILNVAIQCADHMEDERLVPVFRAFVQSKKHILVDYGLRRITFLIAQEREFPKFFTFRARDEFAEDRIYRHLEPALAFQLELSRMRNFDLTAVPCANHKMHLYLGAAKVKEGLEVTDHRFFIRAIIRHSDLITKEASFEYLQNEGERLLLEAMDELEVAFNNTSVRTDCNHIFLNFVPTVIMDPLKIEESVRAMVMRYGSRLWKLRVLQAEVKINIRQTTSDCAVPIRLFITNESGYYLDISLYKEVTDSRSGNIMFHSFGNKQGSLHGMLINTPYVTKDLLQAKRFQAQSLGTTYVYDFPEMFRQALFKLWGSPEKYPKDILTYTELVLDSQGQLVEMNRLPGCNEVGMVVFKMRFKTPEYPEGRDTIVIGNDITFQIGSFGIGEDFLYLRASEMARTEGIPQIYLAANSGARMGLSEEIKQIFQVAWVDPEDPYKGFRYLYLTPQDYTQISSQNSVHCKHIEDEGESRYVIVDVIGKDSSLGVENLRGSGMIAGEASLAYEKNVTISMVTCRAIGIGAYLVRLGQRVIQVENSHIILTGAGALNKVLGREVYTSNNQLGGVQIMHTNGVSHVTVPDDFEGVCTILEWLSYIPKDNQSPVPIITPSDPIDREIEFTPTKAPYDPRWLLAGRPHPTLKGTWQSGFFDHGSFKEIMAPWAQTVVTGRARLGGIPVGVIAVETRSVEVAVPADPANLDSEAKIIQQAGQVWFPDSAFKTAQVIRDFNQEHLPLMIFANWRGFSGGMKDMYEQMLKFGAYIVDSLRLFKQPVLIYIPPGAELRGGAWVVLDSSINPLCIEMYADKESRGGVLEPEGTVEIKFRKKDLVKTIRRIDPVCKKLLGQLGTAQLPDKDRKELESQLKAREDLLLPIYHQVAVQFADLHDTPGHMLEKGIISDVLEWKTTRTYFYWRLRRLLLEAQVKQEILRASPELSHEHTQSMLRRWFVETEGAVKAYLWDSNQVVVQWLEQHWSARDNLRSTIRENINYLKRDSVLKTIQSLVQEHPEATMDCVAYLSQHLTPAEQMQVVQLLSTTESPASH
assayRemarks: Direct inhibition of ACC2 activity (14C-bicarbonate incorporation)
Format: biochemical
conditionLabel: ACC2 from rat skeletal muscle
pIC50: −log10 of the molar value.
recordedMetric: pIC50

[
  {
    "compoundStructureString": "CC(C)Oc1ccc2c(c1)C(=O)CC1(CCN(C(=O)c3cc(Cl)c4[nH]ncc4c3)CC1)O2",
    "pIC50": 7.51
  }
]

1. CCOc1ccc2c(c1)C(=O)CC1(CCN(C(=O)c3cccc(-c4cc[nH]n4)c3)CC1)O2
2. CC(C)Oc1ccc2c(c1)C(=O)CC1(CCN(C(=O)c3cccc(-c4cc[nH]n4)c3)CC1)O2
3. CCOc1ccc2c(c1)C(=O)CC1(CCN(C(=O)c3cc(C)c4[nH]ncc4c3)CC1)O2
Ascending by pIC50, please. Reply format: the labels, ordered as requested. 1, 2, 3
(1: 7.04, 2: 7.26, 3: 7.52)

###

target: ACC1 from rat liver (Rattus norvegicus)
Construct: The livers (for ACC1 preparation) or skeletal muscle tissue (for ACC2 preparation) are removed; from tissue; host or cells: liver of male CD rats (fasted, then fed a high sucrose diet)
assayRemarks: Direct inhibition of ACC1 activity (14C-bicarbonate incorporation)
Assay type: biochemical
conditionLabel: ACC1 from rat liver
pIC50: −log10 of the molar value. Counter-ions that a name gives are not always drawn.
recordedMetric: pIC50

Illustrative cases are given below, each with its answer.
[
  {
    "compound": "Cc1cc2c(cc1Cl)C(=O)CC1(CCN(C(=O)c3cc(C)c4[nH]ncc4c3)CC1)O2",
    "dataValue": 7.35
  },
  {
    "compound": "N#Cc1ccc2c(c1)C(=O)CC1(CCN(C(=O)c3cc(Cl)c4[nH]ncc4c3)CC1)O2",
    "dataValue": 6.48
  },
  {
    "compound": "Cc1cc2c(cc1Cl)C(=O)CC1(CCN(C(=O)c3ccc4ocnc4c3)CC1)O2",
    "dataValue": 6.43
  },
  {
    "compound": "Cc1ccc2c(c1)OC1(CCN(C(=O)c3cccc4cn[nH]c34)CC1)CC2=O",
    "dataValue": 6.07
  }
]

1. COc1ccc2c(c1)C(=O)CC1(CCN(C(=O)c3cccc4cn[nH]c34)CC1)O2
2. Cc1cc(C(=O)N2CCC3(CC2)CC(=O)c2cc(C(N)=O)ccc2O3)cc2cn[nH]c12
# min-compare on pIC50 between 1 and 2 Use the label to indicate which entry you chose. 1
(1: 6.25, 2: 7.42)

1. O=C1CC2(CCN(C(=O)c3cccc4cn[nH]c34)CC2)Oc2c(Cl)cc(Cl)cc21
2. COC(=O)c1ccc2c(c1)C(=O)CC1(CCN(C(=O)c3ccc4c(C)n[nH]c4c3)CC1)O2
3. Cc1cc2c(cc1C)C(=O)CC1(CCN(C(=O)c3ccc4[nH]nnc4c3)CC1)O2 [Ex. L39, trifluoroacetic acid salt]
Order these by pIC50, descending, and give the full ranking. Reply format: the labels, ordered as requested. 2, 3, 1
